Biological target: Clade B BaL gp120 protein (HIV-1 Clade B, BaL)
Test: BLI (Octet), IgG on anti-hIgG Fc sensor, gp120 analyte, 1:1 fit
# Lookup of reported kon keyed by entry
Form entry: enter the amount, then its unit.

BINDER	RESULT
NglycoND (antibody, V domains shown) VH: ADLVQSGAVVKKPGDSVRISCEAQGYRFPDYIIHWIRRAPGQGPEWMGWMNPMGGQVNIPWKFQGRVSMTRDTSIETAFLDLRGLKSDDTAVYYCVRDRSDGSGKRFESSNWFLDLWGRGTAVTIQS VL: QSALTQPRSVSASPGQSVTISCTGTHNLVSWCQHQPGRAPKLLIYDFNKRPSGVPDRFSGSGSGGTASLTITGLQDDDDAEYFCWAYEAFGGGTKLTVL	68400 M⁻¹ s⁻¹

Below: the item to evaluate.
Record request: kon value, item Germ17 (antibody, V domains shown) VH: QVDLVQSGAVVKKPGDSVRVSCEAQGYRFPDYIIHWIRRAPGQGPEWMGWMNPMGGQVNIPWKFQGRVSMTRDTSIETAYMDLRGLRSDDTAVYYCVRDRSNGSGKRFESSNWFLDLWGRGTLVTVSS VL: QSALTQPRSVSGSPGQSVTISCTGTHNLVSWCQHHPGKAPKLMIYDFNKRPSGVPDRFSGSGSGGTASLTISGLQAEDEAEYFCWAYEAFGGGTKLTVL 79300 M⁻¹ s⁻¹

// provenance: patent US20210040184A1
